// reported growth for each item listed
# Test system: U251 CNS
# assay_name: NCI-60 one-dose screen, 48 h (100 = growth as untreated, 0 = no growth, -100 = all killed)
# experimental_setup: 10 µM unless noted
The panel holds about 83,000 compounds, 20% with a hit somewhere; the sample as a whole holds those more often.

{"columns": ["compound", "growth (%)"],
 "data": [
  ["O=C(Nc1cccc(-n2cc(-c3ccncc3)c(-c3ccc(Cl)c(O)c3)n2)c1)c1ccc(N2CCOCC2)c(C(F)(F)F)c1", 11.8],
  ["Cc1csc(NC(c2ccc(Br)cc2)c2c(C)nc3ccccn23)n1 (centres undefined)", 88.8],
  ["CCOC(=O)C1CCNC(=O)C1=O (centres undefined)", 111],
  ["COc1cccc(-c2nc3sccn3c2-c2ccnc(NCCCNS(=O)(=O)c3ccc(F)cc3)c2)c1", 55.5],
  ["CCC(=O)OC1=CN2C(=NC(c3ccc(N)cc3)=CC2c2cc(OC)c(OC)c(OC)c2)S1 (centres undefined)", 46.3],
  ["CC(C)C1=CC2=C(C=O)C[C@@H]3[C@](C)(CCC[C@@]3(C)C(=O)OCC#CCN3CCCC3)[C@H]2CC1", 56.1],
  ["Fc1ccc(CNCCNc2ncnc3c2cnn3-c2ccccc2)cc1", 84],
  ["COc1ccc(Nc2ncccc2C(=O)NCc2cn(Cc3cccc(Oc4ccccc4)c3)nn2)c(OC)c1", 30.2],
  ["COc1ccc(NC(=O)CSc2nc(-c3ccc(OC)c(OC)c3)cc(-c3cc(OC)c(OC)c(OC)c3)n2)cc1", 105]
]}

###

// reported growth for each item listed
# System: MDA-MB-231 breast
# assay_name: NCI-60 one-dose screen, 48 h (100 = growth as untreated, 0 = no growth, -100 = all killed)
# experimental_setup: 10 µM unless noted
This is part of a sample that, as a whole, favours compounds with a hit. Of some 83,000 tested, about 20% had one in any assay.
readout: growth (%)

{"columns": ["compound", "reading"],
 "data": [
  ["Cc1ccc(S(=O)(=O)NCCNc2cc(-c3cn(C(C)(C)C)nc3-c3cccc(O)c3)ccn2)cc1", 76.6],
  ["CCN(CC)CCOC(=O)C(c1ccccc1)(c1ccccc1)C(C)C", 74.3],
  ["COc1ccc(Nc2[nH]n3c(=O)cc(C)nc3c2C(N)=O)c(OC)c1", 84.9],
  ["CCN1C(=O)N(CC)C2C1NN=c1s/c(=C\\c3cccnc3)c(=O)n12 (stereo not given)", 46.5],
  ["COc1ccc(Nc2[nH]n3c(=O)cc(-c4ccccc4)nc3c2C(=O)Nc2ccc(C)cc2)c(OC)c1", 86.2]
]}

###

# Test system: M14 melanoma
# assay_name: NCI-60 one-dose screen, 48 h
# experimental_setup: 10 µM unless noted
About 83,000 compounds went through this panel and 20% of them were active in at least one assay; those are over-represented in the sample as a whole. Activity calls are given as the source filed them. How the source made its calls: active means growth percent below 10; inactive means the rest.
Classes used: active, inactive

{"columns": ["compound", "label_value"],
 "data": [
  ["COP(=O)(OC)/C(=N\\NS(=O)(=O)c1ccc(C)cc1)c1ccccc1", "inactive"],
  ["COc1ccc(N=Cc2c(O)ccc3c2oc2cc(Cl)c(O)c(Cl)c23)cc1", "inactive"],
  ["COc1ccc(/C(C#N)=C/c2cc(OC)c(OC)c(OC)c2)cc1", "inactive"],
  ["CC(C)(C)n1cc(-c2ccnc(NCCNS(=O)(=O)c3ccc(F)cc3)c2)c(-c2cccc(O)c2)n1", "inactive"],
  ["CC1(C)C(=O)/C(=C\\c2ccc(C(F)(F)F)cc2)C[C@]2(C)[C@H]3CC[C@@H]4[C@H]5[C@H](C(=O)/C=C/c6ccc(C(F)(F)F)cc6)CC[C@]5(CO)CC[C@@]4(C)[C@]3(C)CC[C@@H]12", "inactive"],
  ["COc1cc(Cn2cc3c(c2)-c2oncc2CC3)cc(OC)c1OC", "inactive"],
  ["COc1ccc(/C=C2/C(=O)NC(SCC(=O)N3CCN(c4cc5c(cc4F)c(=O)c(C(=O)O)cn5C4CC4)CC3)=NC2N)cc1OC (stereo not given)", "inactive"],
  ["O=S(=O)(CC(O)(c1ccccc1)c1ccccc1)CC(O)(c1ccccc1)c1ccccc1", "inactive"],
  ["OB(O)c1cccc(-c2nc3ccc4[nH]ncc4c3c3c2CCCC3)c1F", "inactive"],
  ["COc1ccc(C(=O)N2NC(=O)/C(=C/c3ccccc3F)N=C2c2ccccc2)cc1", "inactive"],
  ["Brc1cccc(-c2cc(-c3ccc4nccnc4c3)[nH]n2)c1", "inactive"],
  ["CCNc1nc(S(=O)(=O)CC)nc2ccccc12", "inactive"],
  ["COc1cccc(CC(C)=C(c2ccc(OCCN(C)C)cc2)c2ccc(OCCN(C)C)cc2)c1", "active"],
  ["O=[N+]([O-])c1cccc(-c2nc3sccn3c2-c2ccnc(NCCCNS(=O)(=O)c3ccc(Cl)cc3)n2)c1", "inactive"],
  ["COc1ccc(C2C=C(c3ccc(OC)c(OC)c3)N=C3SC=C(C)N32)c(Br)c1 (stereo not given)", "inactive"],
  ["NC(N)=Nc1nc2ccccc2o1", "inactive"],
  ["N[C@H]1CN(C(=O)c2cc3cc(Br)c(F)c(F)c3[nH]2)C[C@@H]1O", "inactive"],
  ["N#C/C(=C1C=C/C(=N/O)C(Cl)=C/1)c1ccc(Cl)cc1", "inactive"],
  ["Cc1nc2ncccc2nc1Nc1ccc(S(=O)(=O)Nc2ccccn2)cc1", "inactive"],
  ["ClC(Cl)c1nc(-c2cccnc2)n2nc(-c3ccccc3)cc2n1", "inactive"]
]}
